B1: mRNA-splicing (parent)
chain: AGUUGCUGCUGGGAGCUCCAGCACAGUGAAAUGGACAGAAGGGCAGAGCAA

- Variants of: B1
- protocol summary: exon inclusion enrichment index; higher = more inclusion; WT1 exon 5 minigene, HEK293
Binary call on exon inclusion enrichment index: y from 0.2 upward, n beneath that.

[Q] Has G34C A35U a recorded exon inclusion enrichment index greater than or equal to 0.2?
[A] n

[Q] Tell me whether exon inclusion enrichment index is at least 0.2 here: G5C C6A U7C G8A U10A C22U
[A] n

[Q] Given G5A C6U U7A G8U C9U U10C , state whether its exon inclusion enrichment index is at least 0.2.
[A] y

[Q] Is exon inclusion enrichment index at least 0.2? Consider G5C C6A U7C G8A U10A G13A A14G
[A] y

[Q] Determine whether measured exon inclusion enrichment index meets or exceeds 0.2 for G5C C6U G8C C9U U10C A35G
[A] y
